tested on: MDA-MB-231 breast; assay: NCI-60 one-dose screen, 48 h (100 = growth as untreated, 0 = no growth, -100 = all killed); conditions: 10 µM unless noted
Compounds without any hit were thinned out: in the full panel of roughly 83,000, 20% have a hit.
observation type: growth (%)
Answer format: numeric, % implied, no suffix.

Previously resolved entries follow.
> print(dat)
                                   compound  observation.type  unit.label  quantitative.result
1                 CC(C)OC(=O)Nn1cnc2ccccc21            growth           %                  117
2  CCCCCCCCc1ccc(OCCOCC[N+](C)(C)CC)cc1 (tested in a mixture with another compound)            growth           %                 22.2
3  CCCCCCCCCCCCCCCCNC(=S)N/N=C/c1ccc(O)cc1O            growth           %                   81
4  C[C@@H](c1ccc2c(c1)[nH]c1ccc(Cl)cc12)c1nc2ccccc2[nH]1            growth           %                 88.1

Lab note: `COc1cc(/C=C/C(=O)/C=C(/C=C/c2ccc(OC(C)=O)c(OC)c2)OB(F)F)ccc1OC(C)=O` gave growth of 80.8

Lab note: `O=C1CCNC1` gave growth of 101

====

test system: COLO 205 colon; test: NCI-60 one-dose screen, 48 h (100 = growth as untreated, 0 = no growth, -100 = all killed); conditions: 10 µM unless noted
The panel holds about 83,000 compounds, 20% with a hit somewhere; the sample as a whole holds those more often.
observation type: growth (%)
Answer format: numeric, % implied, no suffix.

> print(dat)
                     molecule    study.target  quantitative.result
1  CC(=O)Oc1cc2ccccc2cc1C(C)C  COLO 205 colon                  112

Entry `COC(=O)c1ccc2[nH]c(O)c(C(=Nc3ccc(N(C)C(=O)CN4CCN(C)CC4)cc3)c3ccc(C)cc3)c2c1` , tested on COLO 205 colon, has a reported growth of -61.2

Entry `COC(=O)c1cc(=O)nc(N/N=C/c2ccccc2O)s1` , tested on COLO 205 colon, has a reported growth of 93

Entry CCCCCN1CCN(C(CC(=O)c2ccccc2)C(=O)c2ccccc2)CC1 (stereo unspecified) , tested on COLO 205 colon, has a reported growth of 55.1

Entry `Cc1c(Cc2ccccc2)c(=O)oc2c(C)c(OCC(=O)n3nc(C#N)cc3N)ccc12` , tested on COLO 205 colon, has a reported growth of 107

====

system: EKVX NSCLC; assay: NCI-60 one-dose screen, 48 h (100 = growth as untreated, 0 = no growth, -100 = all killed); conditions: 10 µM
Compounds without any hit were thinned out: in the full panel of roughly 83,000, 20% have a hit.
Consider the cut-off 90%. If the recorded growth is strictly smaller, the label is Yes; if not, the label is No.

Solved cases below.
> print(dat)
                                   compound  discrete.label
1  CCOC(=O)C1=C(C(F)(F)F)NC(=O)NC1CN1C(=O)c2ccccc2C1=O (stereo not given)              No
2                      CCOC(=O)CSSCC(=O)OCC              No
3  COc1ccc(C2=NN(C(=O)c3cc(-c4ccc(C)cc4)nc4ccccc34)C(c3cc(-c4ccccc4)nn3-c3ccccc3)C2)cc1 (stereo not given)              No
4            OC(c1ccccc1)(c1ccccc1)C(F)(F)F              No

Input: Is the reported growth for `COc1cc2cn3c4ccc(O)cc4[nH]c(=O)c3c2cc1OC` strictly below 90%?
Output: Yes

Cited source: PubChem BioAssay (NCI)
